# ASSAYED_TARGET: FGFR1 (Homo sapiens, UniProt P11362, C488A/C584S)
# Sequence (P11362 with tags, fused parts or gaps C488A/C584S): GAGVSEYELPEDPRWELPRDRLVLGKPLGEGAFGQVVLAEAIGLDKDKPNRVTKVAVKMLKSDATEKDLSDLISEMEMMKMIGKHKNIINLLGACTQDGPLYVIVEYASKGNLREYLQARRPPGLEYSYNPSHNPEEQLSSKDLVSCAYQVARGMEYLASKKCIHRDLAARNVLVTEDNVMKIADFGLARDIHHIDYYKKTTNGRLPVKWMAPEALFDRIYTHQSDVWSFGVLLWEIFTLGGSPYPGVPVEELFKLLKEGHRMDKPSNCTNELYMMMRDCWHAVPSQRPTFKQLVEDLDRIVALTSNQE
# EXPERIMENTAL_DETAILS: Microscale thermophoresis (MST), label-free
# ASSAY_CONDITIONS: type I TKI; MST per b30 and Figure S5 (Figure 2 legend says ITC), 25°C
pKd: −log10 of the molar value.
PARAMETER_MEASURED: pKd

a. CN1CCN(c2ccc(NC(=O)c3n[nH]c4ccccc34)cc2)CC1
b. COc1ccc(C(=O)Nc2cc(-c3ccccc3)[nH]n2)cc1OC
Could you please tell me which of these two has the higher pKd: a or b ? // caller expects the label of the chosen entry
a
(a: 6.84, b: 4.60)
